# measured-on: Receptor-type tyrosine-protein kinase FLT3 (Homo sapiens)
# test-protocol: inhibitors of Homo sapiens fms-like tyrosine kinase 3, primary HTS, cell-free, LANCE Ultra TR-FRET, NPC library from NCATS (AID 1117356)
# assay-context: recombinant FLT3, LANCE Ultra TR-FRET kinase assay; inhibition; at 2 µM; stronger effect = higher value
measurement-label: inhibition (%)
Value expressed in %; do not type the unit.

Recorded results for 2 molecules are shown here.
Cc1cc(=O)c2c(O)c3c(O)cc(=O)c4c3c3c(cc(O)c1c23)C(C)(C)C=4O = 65.4
COc1cc(NCc2ccc3nc(N)nc(N)c3c2C)cc(OC)c1OC = 0.42

Then this molecule:
Quick note, inhibition for Cc1ccc([N+](=O)[O-])[c]2c1[O][Hg]2 landed at 26.6
